Procedure summary: Antioxidant activity assessed as inhibition of linolenic acid peroxidation at 7.4 ug/mL by TBARS assay
Type: functional
Measured endpoint: inhibition (%)
Please reply with the bare figure in % and do not write the unit itself.

Use these answered entries as a reference point.
| Compound | inhibition (%) |
| --- | --- |
| CC(C)(O)C(O)Cc1cc(O)ccc1O (stereo not drawn) | 2 |
| C=C(C)C1Cc2c(O)ccc(O)c21 (stereo not drawn) | 13.9 |
| COC(=O)CCC(C(=O)O)=C(C)C | -8.6 |
| Cc1cc(C(C)(C)C)c(O)c(C(C)(C)C)c1 | 36.2 |
| C=C(C)C(CCC(=O)OC)C(=O)O (stereo not drawn) | -8.6 |

Item: `CC(C)=C(CCC(=O)O)C(=O)O` | inhibition: -9

Item: CC1(C)Oc2ccc(O)cc2CC1O (stereo not drawn) | inhibition: -9.8

Item: `COC(=O)C(CCC(=O)O)=C(C)C` | inhibition: -8.6

From: ChEMBL document CHEMBL1150128
